test system: IGROV1 ovarian; assay: NCI-60 one-dose screen, 48 h; details: 10 µM unless noted
This is part of a sample that, as a whole, favours compounds with a hit. Of some 83,000 tested, about 20% had one in any assay. Active and inactive are the calls of the source. How the source made its calls: active means growth percent below 10; inactive means the rest.
Use one of these outcomes when replying: label 1 = active, label 0 = inactive

Some entries whose results are on file:
molecule	assignedLabel
O=C(CSc1nnc(-c2ccc(Cl)cc2)n1-c1ccccc1)Nc1ccc(Cl)cc1	label 0
O=C(N/N=C\c1ccc(F)cc1)c1ccc2nc(-c3ccc(Br)cc3)[nH]c2c1	label 1
COc1cc2oc(-c3cccc(NC(=O)c4cccc([N+](=O)[O-])c4)c3)cc(=O)c2c(OC)c1OC	label 0

### Prompt Field: outcome | Entry: CCCCCN1C(=O)/C(=c2\sc3n(c2=O)C2C(NN=3)N(CC)C(=O)N2CC)c2cccc(C)c21 (stereo unspecified)
### Response label 0

### Prompt Field: outcome | Entry: O=C(Nc1cccc(C(F)(F)F)c1)N1CCN(c2cc(-c3cn(-c4ccccc4)nc3-c3cccc(O)c3)ccn2)CC1
### Response label 0

### Prompt Field: outcome | Entry: Cc1[nH]c(C(=O)Nc2ccc(C(=O)NCC3CCNCC3)cc2OC(C)C)c(Cl)c1Cl
### Response label 0

### Prompt Field: outcome | Entry: Brc1ccc(-c2cc(-c3ccc4c(c3)OCCO4)n[nH]2)s1
### Response label 0
